Origin of the recorded values: patent US20210045385A1

I'd appreciate it if you could supply Kochia plant response rating (0 to 100 scale) values for the items below.
system: kochia (Bassia scoparia); test: Test C preemergence, visual plant response rating; format: in vivo; settings: Test C, 31 g ai/ha, 0 is no effect, 100 is complete control

A selection of reference data follows.
CO/N=C(\c1cc(F)cc(C)c1F)c1c(O)c(C)nn(C)c1=O	10
CCOc1cccc(C(=NOC)c2c(O)c(C)nn(C)c2=O)c1	0
C#CCO/N=C(/c1cc(C)cc(Cl)c1)c1c(O)c(C)nn(C)c1=O	0

Respectfully, I request Kochia plant response rating (0 to 100 scale) for each entry included below.
1. C#CCO/N=C(/c1cccc(/C=C/Cl)c1)c1c(O)c(C)nn(C)c1=O
2. CO/N=C(\c1cc(F)cc(F)c1C)c1c(O)c(C)nn(C)c1=O
3. C#CCO/N=C(\c1cccc(/C=C/Cl)c1)c1c(O)c(C)nn(C)c1=O
4. Cc1nn(C)c(=O)c(C(=NOCC2CC2)c2cc(Cl)cc(Cl)c2Cl)c1O [Compound 293]

Result string:
0
0
0
0

---

Kindly supply the reported Kochia plant response rating (0 to 100 scale) values for the records listed here.
test system: kochia (Bassia scoparia); test: Test C postemergence, visual plant response rating; type: in vivo; conditions: Test C, postemergence, 125 g ai/ha

C#CCON=C(c1cccc(OCC(F)(F)F)c1)c1c(O)c(C)nn(C)c1=O	0
CO/N=C(/c1c(O)cnn(C)c1=O)c1ccc(F)c2ccccc12	50

For every record below, what is its Kochia plant response rating (0 to 100 scale)?
1. CCO/N=C(/c1c(O)cnn(C)c1=O)c1ccc(F)c2ccccc12
2. CON=C(c1cc(Cl)cc(OC)c1)c1c(O)c(C)nn(C)c1=O

Result string:
1: 30; 2: 100

Below is a list of molecules. For each, state its recorded Kochia plant response rating (0 to 100 scale).
1. CCO/N=C(\c1cc(Cl)cc(Cl)c1Cl)c1c(O)c(C)nn(C)c1=O
2. CCON=C(c1cc(Cl)cc(Br)c1)c1c(O)c(C)nn(C)c1=O [Compound 180]
3. CO/N=C(/c1cc(Cl)c(F)c(Cl)c1)c1c(O)c(C)nn(C)c1=O
4. CCO/N=C(/c1c(O)c(Cl)nn(C)c1=O)c1ccc(F)c2ccccc12

Result string:
1. 50
2. 90
3. 40
4. 90

Query string: Any idea what Kochia plant response rating (0 to 100 scale) was measured for CO/N=C(/c1c(O)c(C)nn(C)c1=O)c1cc(SC)cc2ccccc12 ?
Result string: 10

---

tested on: Italian ryegrass (Lolium mutiflorum); assay: Test C preemergence, visual plant response rating; type: in vivo; conditions: 125 g ai/ha
Text: […]
I'd appreciate it if you could supply Ryegrass, Italian plant response rating (0 to 100 scale) values for the items below.

See these solved cases before continuing.
C#CCO/N=C(\c1c(O)c(C)nn(C)c1=O)c1cc(Cl)cc2ccccc12	80
CON=C(c1cc(Cl)cc(Cl)c1)c1c(O)c(C)nn(C)c1=O	100
Cc1nn(C)c(=O)c(/C(=N\OCc2ccccc2)c2cccc(Cl)c2)c1O	0
CCO/N=C(\c1cc(Cl)cc(Cl)c1Cl)c1c(O)c(C)nn(C)c1=O	100
CO/N=C(\c1cc(F)cc(F)c1C)c1c(O)c(C)nn(C)c1=O	80

I have 3 compounds here; please give me Ryegrass, Italian plant response rating (0 to 100 scale) for each one.
1. CCCCO/N=C(\c1cc(Cl)cc(Cl)c1Cl)c1c(O)c(C)nn(C)c1=O
2. C#CCO/N=C(/c1cc(C)cc(Cl)c1)c1c(O)c(C)nn(C)c1=O
3. CO/N=C(/c1cc(F)cc(F)c1C)c1c(O)c(C)nn(C)c1=O

Result string:
[80, 100, 30]

Query string: Endpoint output: Ryegrass, Italian plant response rating (0 to 100 scale) of C#CCO/N=C(\c1ccc(F)c(Br)c1)c1c(O)c(C)nn(C)c1=O . Value?
Result string: 30
